Target: recombinant mouse GALK1 (Mus musculus, UniProt Q9R0N0)
Sequence (Q9R0N0 whole entry): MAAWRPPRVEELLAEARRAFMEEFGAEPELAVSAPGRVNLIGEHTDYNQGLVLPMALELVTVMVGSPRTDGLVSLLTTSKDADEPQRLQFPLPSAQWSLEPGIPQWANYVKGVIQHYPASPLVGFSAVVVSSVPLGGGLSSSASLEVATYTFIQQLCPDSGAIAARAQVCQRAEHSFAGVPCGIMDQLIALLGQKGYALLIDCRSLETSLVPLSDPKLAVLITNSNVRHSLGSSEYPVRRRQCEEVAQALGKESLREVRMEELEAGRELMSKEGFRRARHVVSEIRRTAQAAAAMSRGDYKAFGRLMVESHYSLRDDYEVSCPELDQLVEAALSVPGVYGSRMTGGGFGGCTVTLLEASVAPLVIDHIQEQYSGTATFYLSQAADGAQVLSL
Experiment: mGALK1 biochemical activity assay (Kinase-Glo Plus, ATP depletion)
Details: recombinant mouse GALK1, Kinase-Glo Plus ATP depletion; read-out: mGALK
READOUT TYPE: pIC50
Give bare numbers, as −log10 of the molar value.

Worked cases, pIC50 given:
CC1=C(C(=O)Nc2cc(C(=O)O)ccn2)C(c2cccc(Cl)c2Cl)N=C(Nc2nc3ccc(F)cc3o2)N1 (centres unmarked) | 4.66
CC1=C(C(=O)Nc2ccccc2CO)C(c2ccccc2Cl)N=C(Nc2nc3ccccc3o2)N1 (centres unmarked) | 4.76
CC1=C(C(=O)Nc2cc(C(=O)O)ccn2)C(c2ccccc2Cl)N=C(Nc2nc3cccc(Cl)c3o2)N1 (centres unmarked) | 5.01

Please report pIC50 for every entry that follows.
1. COc1ccc([C@@H]2N=C(Nc3nc4ccc(F)cc4o3)NC(C)=C2C(=O)Nc2cc(C(=O)O)ccn2)c(Cl)c1
2. CCOc1ccc(C2N=C(Nc3nc4ccc(F)cc4o3)NC(C)=C2C(=O)Nc2cc(C(=O)O)ccn2)c(Cl)c1 (centres unmarked)
3. CC1=C(C(=O)Nc2cc(C(=O)O)ccc2F)C(c2ccccc2Cl)N=C(Nc2nc3ccc(F)cc3o2)N1 (centres unmarked)
4. CC1=C(C(=O)Nc2cc(C(=O)O)ccn2)C(c2cccc(C(F)(F)F)c2Cl)N=C(Nc2nc3ccc(F)cc3o2)N1 (centres unmarked)
5. CCn1cc(CNC(=O)C2=C(C)NC(Nc3nc4cccc(N)c4o3)=NC2c2ccc(F)cc2Cl)cn1 (centres unmarked)

Result:
[5.70, 5.41, 5.16, 4.56, 5.11]

FYI, the data here is from patent US20230158025A1.
